tested on: rice (Oryza sativa L.), ORYSA; test: Test Example 2 post-emergence (foliage treatment) herbicidal activity, ORYSA; type: in vivo; details: 63 g a.i./ha
Bucketed by reported growth controlling degree, ORYSA, buckets being class 0 (below 40%), class 1 (40% to below 80%), class 2 (80% or more)

Lab note: which band did `COC(=O)CN(C=O)c1c(OC)c(Cl)cc(F)c1-c1nn(C)c(OC(F)F)c1Cl` land in?
class 1

Field: class (growth controlling degree, ORYSA) — entry: `CCOC(=O)CN(C=O)c1c(OC)c(Cl)cc(F)c1-c1nn(C)c(OC(F)F)c1Cl`
class 0

For `C#CCN(C=O)c1c(OC(F)F)c(Cl)cc(F)c1-c1nn(C)c(OC(F)F)c1Cl` , which growth controlling degree, ORYSA bin applies?
class 1

Could you place `COc1c(Cl)cc(F)c(-c2nn(C)c(OC(F)F)c2Cl)c1NC(=O)OCc1cccnc1` in its proper category? Many thanks.
class 2

Class for `COc1c(Cl)cc(F)c(-c2nn(C)c(OC(F)F)c2Cl)c1NC(=O)COc1ccc(Cl)cc1` ?
class 1

Which bin should I file `C#CCNc1c(OC)c(Cl)cc(F)c1-c1nn(C)c(OC(F)F)c1Cl` under?
class 2

For `COc1c(Cl)cc(F)c(-c2nn(C)c(OC(F)F)c2Cl)c1NC(=O)c1ccc(F)cc1F` , which growth controlling degree, ORYSA bin applies?
class 2

Which band does `COc1c(Cl)cc(F)c(-c2nn(C)c(OC(F)F)c2Cl)c1NC(=O)c1ccc(C#N)cc1` fall in?
class 2

Band for the recorded growth controlling degree, ORYSA of `COc1c(Cl)cc(F)c(-c2nn(C)c(OC(F)F)c2Cl)c1NC(=O)c1ccc(C)cc1` ?
class 1

Which class holds `COc1c(Cl)cc(F)c(-c2nn(C)c(OC(F)F)c2Cl)c1NC(=O)c1ccccc1Cl` ?
class 2

Hello team, could you let me know which band the following compound falls into: `COc1c(Cl)cc(F)c(-c2nn(C)c(OC(F)F)c2Cl)c1NC(=O)OCC1CCCCC1`
class 1

Entry `COc1c(Cl)cc(F)c(-c2nn(C)c(OC(F)F)c2Cl)c1N(C=O)CCOc1ccccc1` belongs to which category?
class 0

Cited source: patent US20050245399A1
